target or system: human PI3K isoform beta (p110 beta) (Homo sapiens, UniProt P42338)
Sequence (P42338 whole entry, canonical isoform): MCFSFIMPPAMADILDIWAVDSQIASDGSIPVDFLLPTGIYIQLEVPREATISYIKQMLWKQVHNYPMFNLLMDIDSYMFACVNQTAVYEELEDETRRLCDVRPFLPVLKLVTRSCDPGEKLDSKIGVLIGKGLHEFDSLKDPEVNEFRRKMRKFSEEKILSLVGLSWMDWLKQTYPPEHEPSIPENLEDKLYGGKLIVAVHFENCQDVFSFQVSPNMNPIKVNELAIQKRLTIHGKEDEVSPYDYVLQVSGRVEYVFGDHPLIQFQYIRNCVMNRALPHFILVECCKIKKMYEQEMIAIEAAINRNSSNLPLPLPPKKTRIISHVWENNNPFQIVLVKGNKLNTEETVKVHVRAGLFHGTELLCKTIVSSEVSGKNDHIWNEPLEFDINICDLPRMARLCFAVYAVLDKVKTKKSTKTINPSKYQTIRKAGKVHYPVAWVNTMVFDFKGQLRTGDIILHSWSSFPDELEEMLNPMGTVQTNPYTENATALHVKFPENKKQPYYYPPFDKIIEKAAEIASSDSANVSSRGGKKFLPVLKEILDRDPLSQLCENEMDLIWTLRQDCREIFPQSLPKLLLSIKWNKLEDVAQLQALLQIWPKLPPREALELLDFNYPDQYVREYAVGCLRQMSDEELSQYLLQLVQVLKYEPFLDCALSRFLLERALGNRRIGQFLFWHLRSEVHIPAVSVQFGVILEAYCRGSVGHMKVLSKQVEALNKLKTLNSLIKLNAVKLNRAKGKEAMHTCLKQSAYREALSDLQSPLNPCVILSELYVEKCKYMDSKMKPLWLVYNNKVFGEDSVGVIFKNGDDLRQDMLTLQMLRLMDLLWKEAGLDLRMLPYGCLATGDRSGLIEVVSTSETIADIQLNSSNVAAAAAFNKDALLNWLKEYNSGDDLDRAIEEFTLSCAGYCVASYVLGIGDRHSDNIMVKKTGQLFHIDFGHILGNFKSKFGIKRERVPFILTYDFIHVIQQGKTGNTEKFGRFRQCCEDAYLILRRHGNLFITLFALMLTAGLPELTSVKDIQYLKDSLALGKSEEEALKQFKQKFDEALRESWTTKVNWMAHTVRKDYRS
Sequence (P27986 whole entry partner, canonical isoform): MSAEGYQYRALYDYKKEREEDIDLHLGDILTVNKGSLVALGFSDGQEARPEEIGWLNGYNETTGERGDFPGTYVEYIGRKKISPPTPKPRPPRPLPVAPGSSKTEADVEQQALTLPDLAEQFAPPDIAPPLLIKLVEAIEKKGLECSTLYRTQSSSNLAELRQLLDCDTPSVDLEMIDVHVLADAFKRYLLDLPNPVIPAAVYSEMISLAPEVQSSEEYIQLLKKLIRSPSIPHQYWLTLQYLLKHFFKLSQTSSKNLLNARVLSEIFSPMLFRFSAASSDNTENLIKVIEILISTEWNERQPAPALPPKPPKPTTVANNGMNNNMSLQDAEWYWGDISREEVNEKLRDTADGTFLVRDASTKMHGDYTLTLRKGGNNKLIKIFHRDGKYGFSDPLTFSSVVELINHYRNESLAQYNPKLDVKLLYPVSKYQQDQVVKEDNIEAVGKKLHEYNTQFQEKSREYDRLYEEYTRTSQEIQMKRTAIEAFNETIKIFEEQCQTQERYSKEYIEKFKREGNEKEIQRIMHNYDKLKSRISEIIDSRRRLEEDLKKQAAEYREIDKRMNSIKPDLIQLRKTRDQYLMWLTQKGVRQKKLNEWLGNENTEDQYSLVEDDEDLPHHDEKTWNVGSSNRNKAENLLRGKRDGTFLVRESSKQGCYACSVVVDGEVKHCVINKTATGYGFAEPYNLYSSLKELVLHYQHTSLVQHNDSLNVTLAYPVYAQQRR
assay name: p110 isoform selectivity scintillation proximity assay (SPA), beta isoform
Type: biochemical
details: fold potency over beta relative to alpha, calculated from IC50 values (SPA)
Provide the recorded alpha/beta for the entries that follow.

# alpha/beta of OC1(c2cc3nc(-c4cccc5[nH]ncc45)nc(N4CCOCC4)c3s2)CCC1 [Compound 133] = <10

Note to self: alpha/beta recorded for CS(=O)(=O)c1cccc(-c2cc3nc(-c4cnc5[nH]ccc5c4)nc(N4CCOCC4)c3s2)c1 [Compound 418] was >10

Field alpha/beta (entry Nc1nc(-c2cc3nc(-c4cnc5[nH]ccc5c4)nc(N4CCOCC4)c3s2)cs1 [Compound 429] ) reads >10

For reference, reported alpha/beta for OCc1cccc(-c2cc3nc(-c4cccc5[nH]ncc45)nc(N4CCOCC4)c3s2)c1 [Compound 237] stands at >10

alpha/beta for O=C(O)c1cccc(-c2cc3nc(-c4cccc5[nH]ncc45)nc(N4CCOCC4)c3s2)c1 [Compound 338] is >10

Sample CN(C)C(=O)c1cc2nc(-c3cccc4[nH]ncc34)nc(N3CCOCC3)c2s1 [Compound 263] ; alpha/beta observed: <10

For reference, reported alpha/beta for c1cc(-c2nc(N3CCOCC3)c3sc(Cn4ccnc4)cc3n2)c2cn[nH]c2c1 [Compound 312] stands at <10

// alpha/beta lookup, molecule = c1ccc(-c2cc3nc(-c4cccc5[nH]ncc45)nc(N4CCOCC4)c3o2)cc1 [Compound 233] , result: >10

Entry under test: Cc1c(-c2cccc(S(C)(=O)=O)c2)sc2c(N3CCOCC3)nc(-c3cnc4[nH]ccc4c3)nc12 [Compound 395] . Its alpha/beta was >10

Measured alpha/beta, Cc1c(-c2cccc(S(C)(=O)=O)c2)sc2c(N3CCOCC3)nc(-c3cccc4[nH]ncc34)nc12 [Compound 360] : >10

Lab note: CC(C)(O)c1cc2nc(-c3cccc4[nH]ncc34)nc(N3CCOCC3)c2s1 [Compound 235] gave alpha/beta of >10

# alpha/beta of CC(C)(O)c1cc2nc(-c3cnc4[nH]ccc4c3)nc(N3CCOCC3)c2s1 [Compound 422] = >10

alpha/beta in this record for CC(C)(NC(=O)c1ccccc1)c1cc2nc(-c3cccc4[nH]ncc34)nc(N3CCOCC3)c2s1 [Compound 388] : >10

GET /value?item= CN(Cc1cc2nc(-c3cccc4[nH]ncc34)nc(N3CCOCC3)c2s1)C(=O)c1ccccc1 [Compound 390] &field=alpha/beta returns <10

So, c1cc2cc(-c3nc(N4CCOCC4)c4sc(-c5ccc(N6CCOCC6)nc5)cc4n3)cnc2[nH]1 [Compound 428] ? Its alpha/beta was >10

Measured alpha/beta, C[C@H](O)CNCc1cc2nc(-c3cccc4[nH]ncc34)nc(N3CCOCC3)c2s1 [Compound 205] : <10
